# credit: ChEMBL document CHEMBL4330122

# testDetails: Cytotoxicity against African green monkey Vero cells assessed as reduction in cell viability after 48 hrs by MTT assay
# Format: cell-based
# experimentalContext: chlorocebus sabaeus
Reported CC50 at 48 h values for a set of compounds
assayMetric: CC50 at 48 h

• CCCCn1cc(CO[C@@H]2O[C@H](CN=[N+]=[N-])[C@H]3OC(C)(C)O[C@@H]23)nn1 = 762 µM
• OC[C@H]1O[C@@H](n2cc(COCC(COCc3cn([C@@H]4O[C@H](CO)[C@@H](O)[C@H]4O)nn3)(COCc3cn([C@@H]4O[C@H](CO)[C@@H](O)[C@H]4O)nn3)COCc3cn([C@@H]4O[C@H](CO)[C@@H](O)[C@H]4O)nn3)nn2)[C@H](O)[C@@H]1O = > 1000 µM
• OC[C@@H](O)[C@H](O)[C@H](O)[C@@H](O)COCc1cn(CC(Cn2cc(COC[C@@H](O)[C@H](O)[C@H](O)[C@@H](O)CO)nn2)(Cn2cc(COC[C@@H](O)[C@H](O)[C@H](O)[C@@H](O)CO)nn2)Cn2cc(COC[C@@H](O)[C@H](O)[C@H](O)[C@@H](O)CO)nn2)nn1 = > 1000 µM
• CCCCn1cc(CO[C@@H]2O[C@H](Cn3cc(COC[C@H]4OC(O)[C@H](O)[C@@H](O)[C@H]4O)nn3)[C@H]3OC(C)(C)O[C@@H]23)nn1 (stereo not given in full) = > 1000 µM
• CCCCn1cc(COC[C@@H](O)[C@H](O)[C@H](O)[C@@H](O)CO)nn1 = > 1000 µM
